- Test system: PFSK-1 (Other Solid Carcinomas)
- measurement-notes: Bliss excess, mean over the matrix (fraction); higher = more synergy;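 note: after 72 h of two-drug dosing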
Record form. Attribute: Bliss excess. Fill in for each entry.
Give bare numbers.

Would you please look over these solved cases?
Cc1c2c(nn1C)CSCc1cc(n(C)n1)CSc1cc(c3ccccc3c1)OCCCc1c(C(=O)O)n(C)c3c-2c(Cl)ccc13 [AZD5991] + CCN(CCO)CCCOc1ccc2c(Nc3cc(CC(=O)Nc4cccc(F)c4)[nH]n3)ncnc2c1 [AZD2811] (first compound max 1 µM, 7x7, partner max 1 µM) ... -0.0393
CN(CCO)CC[C@H](CSc1ccccc1)Nc1ccc(S(=O)(=O)NC(=O)c2ccc(N3CCC([C@@H](O)c4ccccc4-c4ccc(Cl)cc4)CC3)cc2)cc1S(=O)(=O)C(F)(F)F [AZD4320] + Cc1cc2ncnn2cc1Nc1ncc2c(n1)n(C1CCOCC1)c(=O)n2C [AZD7648] (first compound max 1 µM, 7x7, partner max 10 µM) ... 0.0756
CC1(C)CCC(CN2CCN(c3ccc(C(=O)NS(=O)(=O)c4ccc(NCC5CCOCC5)c([N+](=O)[O-])c4)c(Oc4cnc5[nH]ccc5c4)c3)CC2)=C(c2ccc(Cl)cc2)C1 [Venetoclax] + C1CN(CCC1(C(=O)N[C@@H](CCO)C2=CC=C(C=C2)Cl)N)C3=NC=NC4=C3C=CN4 [Capivasertib] (first compound max 1 µM, 7x7, partner max 3 µM) ... 0.0634

Would you mind listing Bliss excess for each of the following compounds?
1. COc1cc2ncnc(Nc3ccc(F)c(Cl)c3)c2cc1OCCCN1CCOCC1 [Gefitinib] + CC(C)n1c(=O)n(C)c2cnc3cc(F)c(-c4ccc(OCCCN5CCCCC5)nc4)cc3c21 [AZD1390] (first compound max 10 µM, 7x7, partner max 0.3 µM)
2. CN(CCO)CC[C@H](CSc1ccccc1)Nc1ccc(S(=O)(=O)NC(=O)c2ccc(N3CCC([C@@H](O)c4ccccc4-c4ccc(Cl)cc4)CC3)cc2)cc1S(=O)(=O)C(F)(F)F [AZD4320] + C[C@@H](Nc1cc(F)cc(F)c1)c1cc(C(=O)N(C)C)cc2c(=O)cc(N3CCOCC3)oc12 [AZD8186] (first compound max 1 µM, 7x7, partner max 3 µM)
3. NC1(C(=O)N[C@@H](CCO)c2ccc(Cl)cc2)CCN(c2ncnc3[nH]ccc23)CC1 [Capivasertib] + CC(C)n1c(=O)n(C)c2cnc3cc(F)c(-c4ccc(OCCCN5CCCCC5)nc4)cc3c21 [AZD1390] (first compound max 10 µM, 7x7, partner max 0.3 µM)
4. CC(=O)c1c(C)c2cnc(Nc3ccc(N4CCNCC4)cn3)nc2n(C2CCCC2)c1=O [Palbociclib] + Cn1cnc2c(F)c(Nc3ccc(Br)cc3Cl)c(C(=O)NOCCO)cc21 [Selumetinib] (first compound max 10 µM, 7x7, partner max 10 µM)

[-0.0688, 0.0634, -0.0598, -0.0505]

###

Record form. Attribute: Bliss excess. Fill in for each entry.
- Tested on: H-EMC-SS (Chondrosarcoma)
- measurement-notes: Bliss excess, mean over the matrix (fraction); higher = more synergy
Give bare numbers.

Would you please look over these solved cases?
Cc1c2c(nn1C)CSCc1cc(n(C)n1)CSc1cc(c3ccccc3c1)OCCCc1c(C(=O)O)n(C)c3c-2c(Cl)ccc13 [AZD5991] + CS(=O)(=O)CCNCc1ccc(-c2ccc3ncnc(Nc4ccc(OCc5cccc(F)c5)c(Cl)c4)c3c2)o1 [Lapatinib] (first compound max 1 µM, 7x7, partner max 10 µM) ... -0.0134
COc1nnc2ccc(N3CCC(c4ccc(OCCN5CCN(C)C(=O)[C@H]5C)cc4)CC3)nn12 [AZD5153] + CCN(CCO)CCCOc1ccc2c(Nc3cc(CC(=O)Nc4cccc(F)c4)[nH]n3)ncnc2c1 [AZD2811] (first compound max 1 µM, 7x7, partner max 1 µM) ... -0.0226

Which Bliss excess is listed for CN(CCO)CC[C@H](CSc1ccccc1)Nc1ccc(S(=O)(=O)NC(=O)c2ccc(N3CCC([C@@H](O)c4ccccc4-c4ccc(Cl)cc4)CC3)cc2)cc1S(=O)(=O)C(F)(F)F [AZD4320] + CCN(CCO)CCCOc1ccc2c(Nc3cc(CC(=O)Nc4cccc(F)c4)[nH]n3)ncnc2c1 [AZD2811] (first compound max 1 µM, 7x7, partner max 1 µM) ?
0.0545
